procedureText: Stability studies (shelf life, visible changes)
Format: physicochemical
assaySetup: 40° C. accelerated stability; Week 1; visible changes
Experimental: The effects of HPBCD on the shelf life stability of each active agent is studied at pre-determined temperatures for 11 weeks. Real time stability is observed at −17° C., 5° C. and 25° C., and accelerated stability is observed at 40° C. For accelerated stability, one day at 40° C. is equivalent to one week, thus the data represents 77 weeks. […] The vials are then placed in a temperature-controlled oven or refrigerator/freezer. The compounds are checked daily and any visible changes are noted.
outcomeMeasure: Stability of Actives at 40° C.

CC(O)COC[C@H]1O[C@@H]2O[C@H]3[C@H](O)[C@@H](O)[C@@H](O[C@H]4[C@H](O)[C@@H](O)[C@@H](O[C@H]5[C@H](O)[C@@H](O)[C@@H](O[C@H]6[C@H](O)[C@@H](O)[C@@H](O[C@H]7[C@H](O)[C@@H](O)[C@@H](O[C@H]8[C@H](O)[C@@H](O)[C@@H](O[C@H]1[C@H](O)[C@H]2O)O[C@@H]8COCC(C)O)O[C@@H]7COCC(C)O)O[C@@H]6COCC(C)O)O[C@@H]5COCC(C)O)O[C@@H]4COCC(C)O)O[C@@H]3COCC(C)O (stereo partly drawn) [HPBCD, Hydroxypropyl β-cyclodextrin]; 0
NC(=O)c1cccnc1 [Niacinamide]; 0
CCOC(=O)c1ccc(N)cc1; 0
Nc1cc(N2CCCCC2)nc(N)[n+]1[O-]; 0
